B1: TMEM120A (parent)
chain: YQSFVQFLQYYYQSGCLYRLRALG

- Variants of: B1
- method.notes: protein stability index of a GFP-peptide fusion (GPS, HEK-293T) (PSI 1-6); higher = more stable;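 further: lentivirally expressed fusions sorted by FACS into six bins by GFP to DsRed ratio, PSI derived from sequencing read proportions per bin multiplied by bin number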
- experimental.setup: c terminus: a fixed tail appended
measurement.label: protein stability index
Just the number, please, no unit attached.

Solved entries (count: 6):
If you can, please state the reported protein stability index value of `Q2E` .
3.02

I am curious: what protein stability index value has been reported for `S3L` ?
3.8

GET /values?readout=protein stability index&item= `Y11F`
3.33

Could you tell me which protein stability index is on file for `Y18A` ?
1.84

Give its protein stability index value. Item: `C16R`
2.24

For the variant shown here, `Y12A` , give the reported protein stability index.
3.04

***
Which protein stability index value is on record for `Q9N` ?
2.7

Please give the measured protein stability index for this variant: `Y1S`
1.86

Suppose we examine the variant `Q9C` ; what protein stability index value has been reported?
2.9

Which protein stability index is listed for `F4D` ?
1.31
